Experiment: NCI Yeast Anticancer Drug Screen. Data for the bub3 strain (AID 167)
Conditions: S. cerevisiae bub3 mutant strain, at 100.0 µM, hits give high values
This is part of a sample that, as a whole, favours compounds with a hit. Of some 79,000 tested, about 15% had one in any assay.

COMPOUND: CN(C)c1ccc(C(c2ccc(Cl)cc2)c2ccc(N(C)C)cc2)cc1
UNIT ABBREVIATION: %
growth inhibition: 80

COMPOUND: O=c1[nH]c(=O)n(CCCO)cc1F
UNIT ABBREVIATION: %
growth inhibition: -21

COMPOUND: CCC(C)C(=O)OCC(=O)c1ccc(-c2ccccc2)cc1 (centres undefined)
UNIT ABBREVIATION: %
growth inhibition: 75

COMPOUND: O=C(CCC(=O)c1ccc(O)cc1)Oc1ccc(O)cc1
UNIT ABBREVIATION: %
growth inhibition: 47

COMPOUND: O=C(CSS(=O)(=O)O)c1ccccc1
UNIT ABBREVIATION: %
growth inhibition: 47

COMPOUND: Nc1ccc2ncc(Nc3ccc(Cl)c(Cl)c3)nc2c1
UNIT ABBREVIATION: %
growth inhibition: 96

COMPOUND: Cc1ccc(SSc2ccc(C)cc2[N+](=O)[O-])c([N+](=O)[O-])c1
UNIT ABBREVIATION: %
growth inhibition: 87

COMPOUND: COc1ccc(/C=C2\S/C(=N/Nc3nc(-c4ccccc4)cs3)NC2=O)cc1OC
UNIT ABBREVIATION: %
growth inhibition: 97

COMPOUND: NNc1nnc(-c2ccccc2)nc1Cc1ccccc1
UNIT ABBREVIATION: %
growth inhibition: 90

COMPOUND: CCOC(=O)c1[nH]c2cccc3c2c1CC(Br)C3=O (centres undefined)
UNIT ABBREVIATION: %
growth inhibition: 78

COMPOUND: CC(C)(C(=O)NN)c1ccccc1
UNIT ABBREVIATION: %
growth inhibition: 94

COMPOUND: Cc1ccc(Nc2n[nH]c(=S)s2)cc1C
UNIT ABBREVIATION: %
growth inhibition: 80

COMPOUND: O=c1[nH]cc(F)c(=O)[nH]1
UNIT ABBREVIATION: %
growth inhibition: 3

COMPOUND: O=C(Nn1c(-c2ccccc2)nc2ccccc2c1=O)c1ccc(Cl)cc1
UNIT ABBREVIATION: %
growth inhibition: 95

COMPOUND: [Cl][Pt+2][Cl].[NH-]CC1(C[NH-])CCCCC1
UNIT ABBREVIATION: %
growth inhibition: 98

COMPOUND: C#CC1=CC(=O)C(OC)=CC1=O
UNIT ABBREVIATION: %
growth inhibition: 99

COMPOUND: CCOC(=O)C(NC(=O)c1ccccc1)[CH](c1ccccc1)[Sn]([c]1ccccc1)([c]1ccccc1)[c]1ccccc1 (centres undefined)
UNIT ABBREVIATION: %
growth inhibition: 94

COMPOUND: CN(C)N1C(=O)SCC(c2ccccc2)(c2ccccc2)C1=O
UNIT ABBREVIATION: %
growth inhibition: 23

COMPOUND: Nc1nc(Nc2ccccc2)nc(Nc2ccccc2)n1
UNIT ABBREVIATION: %
growth inhibition: 95

COMPOUND: N=C(N)c1ccc(N=Nc2c(O)ccc3c2[nH]c2ccccc23)cc1
UNIT ABBREVIATION: %
growth inhibition: 93

COMPOUND: Cc1[nH]nc(C(F)(F)F)c1N=NN(C)C
UNIT ABBREVIATION: %
growth inhibition: 98

COMPOUND: S=C1NC2=C(CSC/C2=C\c2ccc(Cl)cc2)C(c2ccc(Cl)cc2)N1 (centres undefined)
UNIT ABBREVIATION: %
growth inhibition: 77

COMPOUND: CCCCCC(=O)C(C)(c1nc2n(c1O)/C(=N/C(=O)Nc1ccc(Cl)cc1)N=N2)c1nc2n(c1O)/C(=N/C(=O)Nc1ccc(Cl)cc1)N=N2
UNIT ABBREVIATION: %
growth inhibition: 20

COMPOUND: CCN(CC)c1cccc(Nc2nc3ccccc3s2)c1
UNIT ABBREVIATION: %
growth inhibition: 30
